Sourced from patent US20110282078A1

assay: approximate solubility at room temperature in ethyl acetate; format: physicochemical; conditions: organic solvent or mixture
Overview of reported solubility across a group of molecules:

O=C(O)/C=C\C=C/C(=O)O [cis,cis muconic acid] :: ~1000 µg/mL
O=C(O)/C=C/C=C/C(=O)O [trans,trans muconic acid] :: ~100 µg/mL

Now for another entry.
The measured solubility associated with O=C(O)/C=C\C=C\C(=O)O [cis,trans muconic acid] reads ~5000 µg/mL
